Data credit: patent US5574018A

- TEST SYSTEM: T1, Porcine IF (Sus scrofa, UniProt A0A8D1ENZ1)
- T1 construct: purchased Sigma Chemical Company, St. Louis, Mo
- T1 sequence (A0A8D1ENZ1 29-425): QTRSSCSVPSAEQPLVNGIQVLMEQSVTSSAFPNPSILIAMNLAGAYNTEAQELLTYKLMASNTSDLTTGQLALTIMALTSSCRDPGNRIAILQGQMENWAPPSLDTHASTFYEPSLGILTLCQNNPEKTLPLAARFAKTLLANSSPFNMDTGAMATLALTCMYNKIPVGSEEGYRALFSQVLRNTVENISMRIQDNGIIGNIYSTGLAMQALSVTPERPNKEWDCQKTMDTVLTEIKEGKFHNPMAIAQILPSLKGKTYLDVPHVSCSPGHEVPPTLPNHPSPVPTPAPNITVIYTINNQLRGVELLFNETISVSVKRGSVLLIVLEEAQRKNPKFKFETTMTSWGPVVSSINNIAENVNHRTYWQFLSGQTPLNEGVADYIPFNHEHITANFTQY
- TEST DESCRIPTION: Intrinsic factor binding affinity, competition binding assay with 57Co-cyanocobalamin (Scatchard)
- EXPERIMENTAL CONDITIONS: association constant, porcine IF, conjugate 123 nM; 30 min
EXPERIMENTAL READOUT: Kd (nM)
The reply should be a number in nM, with the unit left off.

>>> recorded_value("Example 2: conjugate of 5'-O-[glutaroyl]cyanocobalamin with G-CSF via the N-hydroxysuccinimide derivative (conjugate, UniProt P09919 31-207, looked up, cyanocobalamin conjugate, conjugate of 5'-O-[glutaroyl]cyanocobalamin with G-CSF via the N-hydroxysuccinimide derivative) Granulocyte …: TPLGPASSLPQSFLLKCLEQVRKIQGDGAALQEKLVSECATYKLCHPEELVLLGHSLGIPWAPLSSCPSQALQLAGCLSQLHSGLFLYQGLLQALEGISPELGPTLDTLQLDVADFATTIWQQMEELGMAPALQPTQGAMPAFASAFQRRAGGVLVASHLQSFLEVSYRVLRHLAQP")
2.22
>>> recorded_value("Example 10: conjugate with G-CSF via N-hydroxysuccinimidyl ester of 5'-O-[glutaroyl]cyanocobalamin-8-aminocaprylic acid (conjugate, UniProt P09919 31-207, looked up, cyanocobalamin conjugate via aminocaprylic linker, conjugate with G-CSF via N-hydroxysuccinimidyl ester of 5'-O-[glutaroyl]cyanocobalamin-8-aminocaprylic acid) Granulocyte …: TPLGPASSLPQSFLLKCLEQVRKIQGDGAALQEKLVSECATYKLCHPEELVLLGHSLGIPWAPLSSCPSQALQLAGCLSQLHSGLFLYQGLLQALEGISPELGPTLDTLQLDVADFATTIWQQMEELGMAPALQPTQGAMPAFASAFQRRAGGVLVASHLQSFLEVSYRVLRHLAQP")
1.89

Give its Kd value. Item: Example 7: conjugate of 5'-O-[glutaroyl]cyanocobalamin with G-CSF via 12-aminododecylamido-dithiopyridylpropionate (conjugate, UniProt P09919 31-207, looked up, cyanocobalamin conjugate via disulfide linker, conjugate of 5'-O-[glutaroyl]cyanocobalamin with G-CSF via 12-aminododecylamido-dithiopyridylpropionate) Granulocyte …: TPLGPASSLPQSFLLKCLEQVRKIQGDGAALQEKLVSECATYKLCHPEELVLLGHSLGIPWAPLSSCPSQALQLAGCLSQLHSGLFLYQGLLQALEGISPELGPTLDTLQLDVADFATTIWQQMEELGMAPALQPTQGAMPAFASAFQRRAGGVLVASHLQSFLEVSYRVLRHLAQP
4
